Measured values drawn from patent US20230365662A1 for this set.

- target-system: HRgpA-6H (Porphyromonas gingivalis) (UniProt P28784)
- measurement-notes: ELISA, FASEBA Fab on coated HRgpA-6H
Below, each of the binders is paired with its reported OD450nm value.
experimental-readout: OD450nm

INSERT INTO assay_data (binder, numeric_value) VALUES
  ('KB001 mouse Fab VL T52S (Fab, V domains shown) VH: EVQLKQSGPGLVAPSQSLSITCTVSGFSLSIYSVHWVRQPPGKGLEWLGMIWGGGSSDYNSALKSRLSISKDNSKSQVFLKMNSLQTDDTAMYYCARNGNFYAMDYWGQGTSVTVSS VL: QIVLTQSPAIMSASLGERVTMTCTASSSVSSSFLHWYQQKPGSSPQLWIYSSSNLASGVPARFSGSGSGTSYSLTISSMEAEDAATYYCHQYHHSPYIYTFGGGTKLEIK', 0.833),
  ('KB001 mouse Fab VL V29L (Fab, V domains shown) VH: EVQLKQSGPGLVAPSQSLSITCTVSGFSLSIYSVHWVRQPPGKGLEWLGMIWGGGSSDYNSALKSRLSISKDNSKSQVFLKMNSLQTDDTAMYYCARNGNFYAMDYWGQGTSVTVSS VL: QIVLTQSPAIMSASLGERVTMTCTASSSLSSSFLHWYQQKPGSSPQLWIYSTSNLASGVPARFSGSGSGTSYSLTISSMEAEDAATYYCHQYHHSPYIYTFGGGTKLEIK', 0.751);
